tested on: EBC1-shPAK1 cells; test: pharmarray viability screen, 200 compound library, with or without PAK1 knockdown (CellTiter-Glo); type: cell-based, human; conditions: single agent vs combination with PAK1 knockdown
Numbered stars: 1 amine (or outer) side, 2 acyl side, 3 side chain; on linkers, the order of the positions; unused ones are H or OH. Bridge positions count the residues as written; N and C are the ends. Square brackets hold non-standard residues; d marks the D form. Peptide text beside a SMILES is read from it. I, II: the chains in the order shown. Hexamethylenediamine = C(CCCN[*:2])CCN[*:1]; Dip = N[C@H](C(=O)O)C(c1ccccc1)c1ccccc1; Chg = N[C@H](C(=O)O)C1CCCCC1; NMeA = CN[C@@H](C)C(=O)O
The following compounds are listed with their measured Fold change in EC50 values.
Write the value as a bare number.

# example entries with known answers
>  <Compound>
Cc1nc(Nc2ncc(C(=O)Nc3c(C)cccc3Cl)s2)cc(N2CCN(CCO)CC2)n1 [dasatinib]

>  <Measurement Target>
EBC1-shPAK1 cells

>  <Quantitative Result>
5.43

$$$$
>  <Compound>
COc1cc2c(Nc3ccc(Br)cc3F)ncnc2cc1OCC1CCN(C)CC1 [ZD6474]

>  <Measurement Target>
EBC1-shPAK1 cells

>  <Quantitative Result>
2.91

$$$$
>  <Compound>
CN(C)c1nc(N(C)C)nc(N(C)C)n1 [altretamine]

>  <Measurement Target>
EBC1-shPAK1 cells

>  <Quantitative Result>
5.07

$$$$
>  <Compound>
CN[C@@H](C)C(=O)N[C@H](C(=O)N1CCC[C@H]1C(=O)N[C@H](C(=O)NCCCCCCNC(=O)[C@@H](NC(=O)[C@@H]1CCCN1C(=O)[C@@H](NC(=O)[C@H](C)NC)C1CCCCC1)C(c1ccccc1)c1ccccc1)C(c1ccccc1)c1ccccc1)C1CCCCC1 [BV6] (I: H-[NMeA][Chg]P[Dip] / II: H-[NMeA][Chg]P[Dip]; linker I:C-II:C via Hexamethylenediamine)

>  <Measurement Target>
EBC1-shPAK1 cells

>  <Quantitative Result>
57.54

$$$$

Sample CS(=O)(=O)CCNCc1ccc(-c2ccc3ncnc(Nc4ccc(OCc5cccc(F)c5)c(Cl)c4)c3c2)o1 [lapatinib] ; Fold change in EC50 observed: 7.34

Sample O=c1[nH]c2ccccc2n1C1CCN(Cc2ccc(-c3nc4cc5[nH]cnc5cc4nc3-c3ccccc3)cc2)CC1 [Akt inhibitor VIII] ; Fold change in EC50 observed: 1.58

* * *

test system: EBC1-shPAK1 cells; assay: pharmarray viability screen, 200 compound library, with or without PAK1 knockdown (CellTiter-Glo); format: cell-based, human; details: Homo sapiens, 72 h, read-out: Single agent EC50
Assay Endpoint: pEC50
For clarity, pEC50 is expressed as the negative log10 of concentration in mol/L.

Sample N#CC(=C(/N)Sc1ccccc1N)/C(C#N)=C(\N)Sc1ccccc1N ; pEC50 observed: 4.71

Where do the numbers come from? From patent US20140038959A1.
